Data origin, for the record: patent US20150105252A1

tested on: wheat; experiment: Test A preemergence; assay type: in vivo, Triticum aestivum; settings: preemergence, 500 g ai/ha, visual injury after approx. 10 days, 0 to 100 scale (0 no effect, 100 complete control)
ASSAY READOUT: Wheat plant response rating

Query: I'd like to know its Wheat plant response rating. The molecule in question is `CCCCc1cc(C(=O)NC2CC2)nn1Cc1ccnc(C(F)(F)F)c1`
Reply: 10

Query: Look up Wheat plant response rating: `CCc1cc(C(=O)NOC)nn1Cc1ccnc(C(F)(F)F)c1`
Reply: 60

Query: Consider the molecule `CCc1cc(C(=O)NCC(F)(F)F)nn1Cc1ccnc(OCC(F)(F)F)c1` and give its measured Wheat plant response rating.
Reply: 30

Alright, here's another molecule for you.
Query: Recorded Wheat plant response rating of `CCONC(=O)c1cc(C)n(Cc2cccc(OC(F)(F)F)c2)n1` , please.
Reply: 80
